# measurement.notes: Half life in human plasma
# Assay type: ADME, cell-free
Peptide text beside a SMILES is read from it.
assay.readout: half-life (min)
Give bare numbers, in min.

Query: May I ask what half-life has been recorded for CC(=O)N[C@@H](CO)C(=O)N[C@@H](CC(=O)O)C(=O)N[C@@H](CCCCN)C(=O)N1CCC[C@H]1C(=O)O [GORALATIDE] (Ac-SDKP-OH) ?
Response: 4.5
